FYI, the data here is from PubChem BioAssay AID1963976.

- Tested on: 435261-313-R-J1-PDC tumor spheroid viability;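 further: spheroids exposed to compounds for 7 days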
- testDescription: Anticancer human tumor 435261-313-R-J1-PDC patient-derived colon adenocarcinoma cell line growth inhibition [PI3K]
- studyConditions: second compound 0.1 µM; first compound 3.16 µM; stronger effect = lower value; spheroids with HUVEC and MSC
parameter: viability, T/C (%)
Numbers only, in %.

{"molecule": "CC1(C)CCC(Nc2ncc(C(F)(F)F)c(-c3c[nH]c4c(P(C)(C)=O)c(C#N)ccc34)n2)CN1 (stereo not given) + CC(Nc1ncnc2nc[nH]c12)c1cc2cccc(Cl)c2c(=O)n1-c1ccccc1", "parameter": "viability, T/C", "testValue": 44.4}
{"molecule": "CCCS(=O)(=O)Nc1ccc(F)c(C(=O)c2c[nH]c3ncc(-c4ccc(Cl)cc4)cc23)c1F + COc1c(OCCCN2CCOCC2)ccc2c3n(c(=NC(=O)c4cnc(N)nc4)nc12)CCN3", "parameter": "viability, T/C", "testValue": 22.1}
{"molecule": "CC1(C)CCC(Nc2ncc(C(F)(F)F)c(-c3c[nH]c4c(P(C)(C)=O)c(C#N)ccc34)n2)CN1 (stereo not given) + CC(Nc1ccc2c(c1)OCCn1cc(N3C(=O)OCC3C(F)F)nc1-2)C(N)=O", "parameter": "viability, T/C", "testValue": 24.5}
{"molecule": "C[C@@H](NC(=O)c1ncnc(N)c1Cl)c1ncc(C(=O)Nc2cc(C(F)(F)F)c(Cl)cn2)s1 + COc1c(OCCCN2CCOCC2)ccc2c3n(c(=NC(=O)c4cnc(N)nc4)nc12)CCN3", "parameter": "viability, T/C", "testValue": 18.2}

Query CC(Cn1ccc(-c2ccc(C#N)c(Cl)c2)n1)NC(=O)c1cc(C(C)O)[nH]n1 (stereo not given) + CC(Nc1ccc2c(c1)OCCn1cc(N3C(=O)OCC3C(F)F)nc1-2)C(N)=O yields viability, T/C of 46.2
